Values compiled from patent US10259808B2.

# test-target: RORc ligand binding domain (Homo sapiens, UniProt P51449)
# Sequence (P51449 269-508 limits assumed): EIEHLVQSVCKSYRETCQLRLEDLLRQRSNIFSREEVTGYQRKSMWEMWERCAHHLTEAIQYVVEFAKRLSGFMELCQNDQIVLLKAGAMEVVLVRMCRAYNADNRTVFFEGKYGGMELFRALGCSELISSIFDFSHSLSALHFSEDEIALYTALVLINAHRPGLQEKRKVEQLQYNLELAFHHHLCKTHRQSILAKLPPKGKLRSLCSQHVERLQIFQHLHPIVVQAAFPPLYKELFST
# protocol-notes: In vitro RORc ligand binding assay (25-[3H]hydroxycholesterol displacement)
pIC50: −log10 of the molar value.
measured-property: pIC50

- molecule: "Cc1cc(CNC2(c3cc(F)c(CN4[C@@H](C)CC[C@H](c5ccccc5)S4(=O)=O)cc3F)CCOCC2)no1"
  assay-value: 8.30

[A] C[C@H]1CC[C@H](c2ccccc2)S(=O)(=O)N1Cc1cc(F)c([C@]2(c3nnc[nH]3)C[C@H](O)C2)cc1F
[B] C[C@H]1CC[C@H](c2ccccc2)S(=O)(=O)N1Cc1cc(F)c([C@]2(c3nn(CC#N)c(=O)o3)C[C@](C)(O)C2)cc1F (racemic)
Response body: label of entry with the larger pIC50; valid values A , B . Write the label of whichever entry you select.
B

[a] C[C@H]1CC[C@H](c2ccccc2)S(=O)(=O)N1Cc1cc(F)c(C2(NCc3nnc[nH]3)CCOCC2)cc1F
[b] C[C@H]1CC[C@H](c2ccccc2)S(=O)(=O)N1Cc1ccc(C2(C(=O)NC3COC3)CCOCC2)cc1F
[c] C[C@H]1CC[C@H](c2ccccc2)S(=O)(=O)N1Cc1ccc(C2(c3noc(CN(C)C)n3)CCOCC2)cc1F
[d] C[C@H]1CC[C@H](c2ccccc2)S(=O)(=O)N1Cc1cc(F)c(C2(NCc3ncco3)COC2)cc1F
Rank descending by pIC50. Provide your answer as the labels ordered per the instruction.
d, a, b, c
(d: 8.09, a: 7.63, b: 6.96, c: 6.33)
